B1: ZNF232 (parent)
chain: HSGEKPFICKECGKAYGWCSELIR

Variants of: B1
Assay: protein stability index of a GFP-peptide fusion (GPS, HEK-293T) (PSI 1-6); higher = more stable;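 further: lentivirally expressed fusions sorted by FACS into six bins by GFP to DsRed ratio, PSI derived from sequencing read proportions per bin multiplied by bin number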
Conditions: c terminus: a fixed tail appended
Assign class by protein stability index: not lower than 2 means met; lower than 2 means not met.

1. F7V = not met
2. E21A = met
3. G17M = met
4. R24E = met
5. H1N = met
6. C19V = not met
7. G13E = met
8. S20M = not met
9. L22M = met
10. C19D = not met
11. G3H = not met
12. Y16G = not met
13. P6Q = not met
14. C9R = met
15. Y16F = not met
16. I23W = met
17. S20R = met
18. I23G = met
19. G13L = not met
20. C12S = met
21. S2L = met
22. C19F = not met
23. C9E = met
24. K5C = not met
25. K14A = met
26. C12M = met
27. C12N = met
28. W18K = not met
29. E11W = met
30. H1T = not met
31. H1A = not met
32. S2R = not met
33. E4F = not met
34. S2N = met
35. F7H = met
36. Y16W = met
37. P6F = not met
38. C19M = met
39. S2I = met
40. F7M = met
41. I8M = met
42. K5N = met
